B1: CPN1 (parent)
chain: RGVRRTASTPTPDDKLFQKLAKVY

# Variants of: B1
# protocol summary: protein stability index of a GFP-peptide fusion (GPS, HEK-293T) (PSI 1-6); higher = more stable;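 further: lentivirally expressed fusions sorted by FACS into six bins by GFP to DsRed ratio, PSI derived from sequencing read proportions per bin multiplied by bin number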
# assay setup: c terminus: a fixed tail appended
quantity name: protein stability index

| ordered residues | endpoint result |
| --- | --- |
| RGVRRTASTPTPDDKLFQKLLKVY | 1.58 |
| RGVRRTAGTPTPDDKLFQKLAKVY | 1.1 |
| RGVRRTGSTPTPDDKLFQKLAKVY | 2.38 |
| RGVRRTASTPTPLDKLFQKLAKVY | 1.65 |
| RGVRRTASTPTPDDKLMQKLAKVY | 3 |
| RGVRKTASTPTPDDKLFQKLAKVY | 1.85 |
| RGVRRTASTVTPDDKLFQKLAKVY | 1.79 |
| RGVRRTASTPTPDDYLFQKLAKVY | 1.63 |
| RGVCRTASTPTPDDKLFQKLAKVY | 3.17 |
| RGVRRTASTPTPRDKLFQKLAKVY | 1.63 |
| RGVRRRASTPTPDDKLFQKLAKVY | 1.99 |
| RGVRRTASTPTPDDKLFQKRAKVY | 3.3 |
| RGVRRTASTPTPDDKLFQWLAKVY | 2.21 |
| RGVRRTASTPTPDDKLFQKLPKVY | 2.62 |
| RGVRRTASTPTPDDKLFQKLARVY | 2.07 |
| RGVRRTASTPTPDDKNFQKLAKVY | 3.32 |
| RGVRRTASTPTKDDKLFQKLAKVY | 2.32 |
| RGVRMTASTPTPDDKLFQKLAKVY | 2.51 |
| RGVRRTASTPTPDDKLFQKLAKHY | 2.78 |
| RGVRRTASTWTPDDKLFQKLAKVY | 1.36 |
| CGVRRTASTPTPDDKLFQKLAKVY | 1.4 |
| RGVRTTASTPTPDDKLFQKLAKVY | 2.94 |

This collection of values is drawn from the supplement of paper PMC10567573.
